tested on: HCT-15 colon; assay: NCI-60 one-dose screen, 48 h; conditions: 10 µM unless noted
The panel holds about 83,000 compounds, 20% with a hit somewhere; the sample as a whole holds those more often. Active and inactive are the calls of the source. How the source made its calls: active means growth percent below 10; inactive means the rest.
Your reply should match one of these outcome classes. y (active), n (inactive)

Illustrative cases are given below, each with its answer.
molecule	class
C[C@H]1O[C@@H](O[C@H]2[C@@H](O)C[C@H](O[C@H]3[C@@H](O)C[C@H](O[C@H]4CC[C@]5(C)C6C[C@@H](O)[C@]7(C)[C@@H](C8=CC(=O)OC8)CC[C@]7(O)C6CC[C@@H]5C4)O[C@@H]3C)O[C@@H]2C)C[C@H](O)[C@@H]1O (stereo not given in full)	y
O=C1/C=C/[C@@H](O)[C@@H]2C[C@@H](O)C[C@H]2/C=C/CCC[C@H](CO)O1	n
O=C(N/N=C/c1cccc([N+](=O)[O-])c1)c1ccc(Br)o1	n
COc1cc(-c2nnc(-c3nc(-c4cc(OC)c(OC)c(OC)c4)n4ccccc34)o2)ccc1N	n

## Input Test call, this molecule: Cc1ccc(/C=C/C(=O)c2ccc(F)cc2)s1
## Output n

## Input Now give it for O=C1OC2(c3ccccc31)c1ccccc1-c1ccccc12 too.
## Output n

## Input Cool, now C1CCC(C(CC2CCCCN2)C2CCCCC2)CC1 (stereo not given)
## Output n

## Input Now consider COC(=O)N/N=C/c1coc2ccc(Cl)cc2c1=O .
## Output n

## Input Follow-up entry: COc1cc(-c2nc3nc4sc(C)c(C)c4c(=O)n3[nH]2)cc(OC)c1OC
## Output n

## Input Also c1ccc(-c2nc(Nc3nccnn3)c3ccccc3n2)cc1 ?
## Output n

## Input Further, for O=C1NC(=S)S/C1=C\c1cc(Br)ccc1O ?
## Output n

----------
system: MDA-MB-435 melanoma; experiment: NCI-60 one-dose screen, 48 h; details: 10 µM unless noted
Compounds without any hit were thinned out: in the full panel of roughly 83,000, 20% have a hit. Activity calls are given as the source filed them. Rule for the calls: active = growth percent below 10; inactive = the rest.
Give one outcome, nothing more. List: 1 for active, -1 for inactive

Example entries begin here.
compound	class
O=C(/C=C(\Nc1ccccc1)c1ccccc1)c1cn(-c2ccc([N+](=O)[O-])cc2)nn1	-1
O=C(C(=O)c1cc(Br)ccc1O)c1cc(Br)ccc1O	-1
COc1ccc(C2=NN(C(C)=O)C(c3c(C)nn(-c4ccccc4)c3N3CCOCC3)C2)cc1 (centres undefined)	-1
c1cc[n+](Cc2ccnc3ccccc23)cc1	-1
O=C1OC2(c3ccccc31)c1ccccc1-c1ccccc12	1
CC(C)Cn1cnc2c(NCn3nc(-c4cc(Cl)cc(Cl)c4Cl)n(/N=C/c4ccc(Cl)cc4)c3=S)nc3ccccc3c21	-1
Cc1ccc(C(NC(=O)c2ccccc2)c2ccc3cccnc3c2O)cc1 (centres undefined)	-1
C(#Cc1ccccc1C#Cc1ccccn1)c1ccc(OCCCCCCOc2ccc(C#Cc3ccccc3C#Cc3ccccn3)cc2)cc1	-1

## Input Any idea what this test logged for Cc1ccc(OCC(=O)Nc2ccc(Oc3ccccc3)cc2)c([N+](=O)[O-])n1 ?
## Output -1

## Input Also COc1ccc(C2CC(c3ccc4c(c3)OCO4)=NN2C=O)cc1 (centres undefined) ?
## Output -1

----------
test system: K-562 leukemia; assay: NCI-60 one-dose screen, 48 h; details: 10 µM unless noted
About 83,000 compounds went through this panel and 20% of them were active in at least one assay; those are over-represented in the sample as a whole. The source made the active and inactive calls. How the source made its calls: active means growth percent below 10; inactive means the rest.
Your answer must be one of the following: y = active, n = inactive

compound	class
O=C(NCCCl)NCCN1c2nc3ccccc3cc2Sc2cc3ccccc3nc21	n
CN1CCC[C@@H]1CCO[C@](C)(c1ccccc1)c1ccc(Cl)cc1	n
Clc1ccc2nc(CI)c(CI)nc2c1	y
Nc1ccccc1C#Cc1ccccc1C#Cc1ccc(OCCCCCCOc2ccc(C#Cc3ccccc3C#Cc3ccccc3N)cc2)cc1	n
CC1CN(CC(O)c2ccc(Br)cc2)CCO1 (centres undefined)	n

## Input What did the test return for CCN(CC)CCOCC[C@H]1CC[C@H]2[C@@H]3[C@H](C)Cc4cc(OS(N)(=O)=O)ccc4[C@H]3CC[C@]12C ?
## Output y

## Input Then this compound: C1=C(Cc2ccccc2)n2cnc3ncnc(c32)S1
## Output n

## Input Same thing, different compound: COc1ccc(C2=NN(C(C)=O)C(c3cccc(Nc4ccnc5cc(Cl)ccc45)c3)C2)cc1 (centres undefined)
## Output n

## Input How about CCOC(=O)/C(=C/CC/C(C)=C/CC/C(C)=C/CCc1ccoc1)CC(=O)N1CCCCC1 ?
## Output n

## Input // repeat for Cc1sc2nc(N3CCCCC3)[nH]c(=O)c2c1C and report
## Output n

## Input Entry to check: COc1ccc2c(c1)[n+](=O)c(C(=O)/C=C/c1cc(OC)c(OC)c(OC)c1)c(C)n2[O-]
## Output n

## Input Same lookup for COc1ccc(/C=C2/SC(=Nc3c(C)nn(-c4ccccc4)c3N)NC2=O)cc1 , please.
## Output n
